- Tested on: P. aeruginosa expressing IMP-1, efflux+ (MB9798)
- Type: cell-based, Pseudomonas aeruginosa
- Test parameters: ratio MITC95 PA_9798/MITC95 PA_9799
Listed here are compounds together with their documented Efflux ratio.
Property label: Efflux ratio

1. NC[C@H](O)CS(=O)(=O)c1ccc(-c2cccc3[nH]c(N)nc23)c(-c2nn[nH]n2)c1S(N)(=O)=O
1.00
2. NC[C@@H](N)CS(=O)(=O)c1ccc(-c2cccc3[nH]c(N)nc23)c(-c2nn[nH]n2)c1S(N)(=O)=O
0.70
3. N=C(N)c1nc2c(-c3ccc(S(=O)(=O)CCN)c(S(N)(=O)=O)c3-c3nn[nH]n3)cccc2s1
4.00
4. NS(=O)(=O)c1c(S(=O)(=O)C2CNC2)ccc(-c2ccc3ncccc3c2)c1-c1nnn[nH]1.O=C(O)C(F)(F)F
8.00
